Quick reference for remaining activity at 100 µM among some compounds
Biological target: LasR (Pseudomonas aeruginosa, UniProt P25084)
Construct: expressed in transfected cells; host or cells: E. coli TOP10 carrying pBAD-A 6xHIS-lasR and pCS26 plasB-luxCDABE
Sequence (P25084 whole entry): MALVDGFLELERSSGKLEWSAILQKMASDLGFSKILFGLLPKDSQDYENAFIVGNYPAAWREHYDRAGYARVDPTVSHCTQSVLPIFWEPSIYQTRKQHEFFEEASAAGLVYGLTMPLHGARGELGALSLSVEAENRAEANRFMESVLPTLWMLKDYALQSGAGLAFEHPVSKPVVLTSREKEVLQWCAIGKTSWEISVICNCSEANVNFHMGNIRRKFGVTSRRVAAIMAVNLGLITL
Experiment: Two plasmid E. coli LasR reporter (luciferase)
Type: cell-based, P. aeruginosa
Settings: read-out: Percent Activity (LasR reporter)
REPORTED METRIC: remaining activity at 100 µM

| COMPOUND | REPORTED METRIC | ASSAY VALUE |
| --- | --- | --- |
| O=C(CCc1ccc(O)cc1)c1c(O)cc(O)cc1O [Molecule 1, Phloretin] | remaining activity at 100 µM | 24.1% |
| O=c1c(O)c(-c2ccc(O)c(O)c2)oc2cc(O)cc(O)c12 [Molecule 48, Quercetin] | remaining activity at 100 µM | 44.4% |
| O=c1cc(-c2ccccc2)oc2cc(O)c(O)c(O)c12 [Molecule 46, Baicalein] | remaining activity at 100 µM | 46.7% |
| O=c1cc(-c2ccccc2)oc2ccc(O)c(O)c12 [Molecule 53] | remaining activity at 100 µM | 16.7% |
| O=c1cc(-c2ccccc2)oc2c(O)c(O)ccc12 [Molecule 54] | remaining activity at 100 µM | 60.3% |
| O=c1cc(-c2ccccc2)oc2cc(O)cc(O)c12 [Molecule 3, Chrysin] | remaining activity at 100 µM | 53.1% |
| O=C1CC(c2ccc(O)cc2)Oc2cc(O)cc(O)c21 (centres unmarked) [Molecule 4] | remaining activity at 100 µM | 63.3% |
| O=c1cc(-c2ccc(O)cc2)oc2cc(O)cc(O)c12 [Molecule 43] | remaining activity at 100 µM | 82.4% |
